- protocol.summary: Selectivity index, ratio of GI50 for human HL-60 cells to GI50 for antitrypanosomal activity against Trypanosoma brucei brucei S427
- Format: toxicity
- assay.conditions: read-out: RatioGI50
measured.endpoint: selectivity ratio
Just the number, please, no unit attached.

Give its selectivity ratio value. Item: `CC[C@@H](C(=O)[C@@H](C)[C@@H](O)[C@H](C)[C@@H]1O[C@@H]([C@@H](CC)C(=O)ONC(=O)c2ccccc2)CC[C@@H]1C)[C@H]1O[C@]2(C=C[C@H](OC(C)=O)[C@]3(CC[C@@](C)([C@H]4CC[C@](O)(CC)[C@H](C)O4)O3)O2)[C@H](C)C[C@@H]1C`
18.2

Next item in the queue.
Give its selectivity ratio value. Item: `CC[C@@H](C(=O)[C@@H](C)[C@@H](O)[C@H](C)[C@@H]1O[C@@H]([C@@H](CC)C(=O)O)CC[C@@H]1C)[C@H]1O[C@]2(C=C[C@H](OC(=O)c3ccccc3)[C@]3(CC[C@@](C)([C@H]4CC[C@](O)(CC)[C@H](C)O4)O3)O2)[C@H](C)C[C@@H]1C`
67.5

###

- protocol.summary: Selectivity index, ratio of GI50 for human HL-60 cells to GI50 for antitrypanosomal activity against Trypanosoma brucei brucei S427
- Type: toxicity
- assay.conditions: read-out: RatioGI50
measured.endpoint: selectivity ratio
Just the number, please, no unit attached.

Give its selectivity ratio value. Item: `CC[C@@H](C(=O)[C@@H](C)[C@@H](O)[C@H](C)[C@@H]1O[C@@H]([C@@H](CC)C(=O)ONC(=O)c2ccccc2)CC[C@@H]1C)[C@H]1O[C@]2(C=C[C@H](O)[C@]3(CC[C@@](C)([C@H]4CC[C@](O)(CC)[C@H](C)O4)O3)O2)[C@H](C)C[C@@H]1C`
29.8

New cases:
Give its selectivity ratio value. Item: `CCCCCCCCCC(=O)O[C@H]1C=C[C@]2(O[C@H]([C@@H](CC)C(=O)[C@@H](C)[C@@H](O)[C@H](C)[C@@H]3O[C@@H]([C@@H](CC)C(=O)O)CC[C@@H]3C)[C@@H](C)C[C@H]2C)O[C@@]12CC[C@@](C)([C@H]1CC[C@](O)(CC)[C@H](C)O1)O2`
165

Give its selectivity ratio value. Item: `CC[C@@H](C(=O)[C@@H](C)[C@@H](O)[C@H](C)[C@@H]1O[C@@H]([C@@H](CC)C(=O)O)CC[C@@H]1C)[C@H]1O[C@]2(C=C[C@H](OC(=O)C34CC5CC(CC(C5)C3)C4)[C@]3(CC[C@@](C)([C@H]4CC[C@](O)(CC)[C@H](C)O4)O3)O2)[C@H](C)C[C@@H]1C`
55

###

- protocol.summary: Cytotoxicity against human HL-60 cells by resazurin dye based fluorescence assay
- Format: cell-based
# Lookup of reported log10 GI50 keyed by entry
The common logarithm of GI50 in µM is what is listed.

Answered cases to consult:
Give its log10 GI50 value. Item: `CCCCCCCCCC(=O)O[C@H]1C=C[C@]2(O[C@H]([C@@H](CC)C(=O)[C@@H](C)[C@@H](O)[C@H](C)[C@@H]3O[C@@H]([C@@H](CC)C(=O)O)CC[C@@H]3C)[C@@H](C)C[C@H]2C)O[C@@]12CC[C@@](C)([C@H]1CC[C@](O)(CC)[C@H](C)O1)O2`
0.78

Give its log10 GI50 value. Item: `CC[C@@H](C(=O)[C@@H](C)[C@@H](O)[C@H](C)[C@@H]1O[C@@H]([C@@H](CC)C(=O)O)CC[C@@H]1C)[C@H]1O[C@]2(C=C[C@H](OC(C)=O)[C@]3(CC[C@@](C)([C@H]4CC[C@](O)(CC)[C@H](C)O4)O3)O2)[C@H](C)C[C@@H]1C`
1.72

New cases:
Give its log10 GI50 value. Item: `CCCCCCCCNC(=O)O[C@H]1C=C[C@]2(O[C@H]([C@@H](CC)C(=O)[C@@H](C)[C@@H](O)[C@H](C)[C@@H]3O[C@@H]([C@@H](CC)C(=O)O)CC[C@@H]3C)[C@@H](C)C[C@H]2C)O[C@@]12CC[C@@](C)([C@H]1CC[C@](O)(CC)[C@H](C)O1)O2`
1.39

Give its log10 GI50 value. Item: `CC[C@@H](C(=O)[C@@H](C)[C@@H](O)[C@H](C)[C@@H]1O[C@@H]([C@@H](CC)C(=O)O)CC[C@@H]1C)[C@H]1O[C@]2(C=C[C@H](OC(=O)C(C)C)[C@]3(CC[C@@](C)([C@H]4CC[C@](O)(CC)[C@H](C)O4)O3)O2)[C@H](C)C[C@@H]1C`
1.33

Give its log10 GI50 value. Item: `C#CCNC(=O)[C@H](CC)[C@H]1CC[C@H](C)[C@H]([C@@H](C)[C@H](O)[C@H](C)C(=O)[C@H](CC)[C@H]2O[C@]3(C=C[C@H](OC(=O)OCC)[C@]4(CC[C@@](C)([C@H]5CC[C@](O)(CC)[C@H](C)O5)O4)O3)[C@H](C)C[C@@H]2C)O1`
1.79

Give its log10 GI50 value. Item: `CC[C@@H](C(=O)[C@@H](C)[C@@H](O)[C@H](C)[C@@H]1O[C@@H]([C@@H](CC)C(=O)O)CC[C@@H]1C)[C@H]1O[C@]2(C=C[C@H](OC(=O)OCC(C)(C)C)[C@]3(CC[C@@](C)([C@H]4CC[C@](O)(CC)[C@H](C)O4)O3)O2)[C@H](C)C[C@@H]1C`
1.63
